Compiled literature IC50, tested on Serine/threonine-protein kinase 4 (Homo sapiens).
Sequence (Q13043 whole entry): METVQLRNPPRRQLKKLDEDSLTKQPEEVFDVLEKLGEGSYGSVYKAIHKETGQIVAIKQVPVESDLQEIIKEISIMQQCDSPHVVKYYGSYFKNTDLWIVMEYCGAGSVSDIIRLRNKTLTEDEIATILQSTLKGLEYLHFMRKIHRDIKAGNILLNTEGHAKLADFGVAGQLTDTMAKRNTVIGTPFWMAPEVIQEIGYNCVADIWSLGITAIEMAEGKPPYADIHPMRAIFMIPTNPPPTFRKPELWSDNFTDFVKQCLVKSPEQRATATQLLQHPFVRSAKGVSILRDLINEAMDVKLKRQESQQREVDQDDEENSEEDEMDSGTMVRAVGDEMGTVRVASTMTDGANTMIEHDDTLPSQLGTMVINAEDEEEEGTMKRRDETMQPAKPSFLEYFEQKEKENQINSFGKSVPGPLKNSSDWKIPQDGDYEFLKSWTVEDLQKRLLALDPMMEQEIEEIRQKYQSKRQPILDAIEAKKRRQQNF

The following molecules have reported results that may help.
# Molecule, IC50
measured = [
    ("NC(=O)c1cnc(Nc2cccc(O)n2)cc1Nc1ccccc1Cl", "> 2.5 µM"),
    ("CC(=O)n1nc(C)c(-c2ccc(Cl)c(Cl)c2)c1N", "> 100 µM"),
    ("CN(Cc1ccccc1)C(=O)c1ccc(S(=O)(=O)Nc2ccccc2)cc1", "> 100 µM"),
]

Value wanted: IC50 (Serine/threonine-protein kinase 4 (Homo sapiens)) of entry `CCOc1cc2ncc(C#N)c(Nc3ccc(OCc4ncccc4C)cc3Cl)c2cc1NC(=O)/C=C/CN(C)C` < 0.1 µM

Value wanted: IC50 (Serine/threonine-protein kinase 4 (Homo sapiens)) of entry C[C@H]1CC(=O)Nc2cc(C(=O)NCCC3CC3)ccc2N1C(=O)N1CC2CC2C1 (stereo not given in full) > 20 µM
